assay-protocol: Selectivity index, ratio of cytotoxicity for human SK-MEL cells to IC50 for Cryptococcus neoformans ATCC 90113
Format: toxicity, cell-based
experimental-conditions: read-out: Selectivity Index
Assign selectivity ratio to each entry below.

COC(=O)[C@H](CCCNC(=N)N)NC(=O)[C@H](Cc1c[nH]c(-c2ccc(-c3ccccc3)cc2)n1)NC(=O)[C@H](CCCNC(=N)N)NC(=O)OC(C)(C)C; > 12.5
COC(=O)[C@H](CCCNC(=N)N)NC(=O)[C@H](Cc1c[nH]c(-c2ccc(C)cc2)n1)NC(=O)[C@H](CCCNC(=N)N)NC(=O)OC(C)(C)C; > 1

For every item below, please supply its selectivity ratio.
1. CC(C)(C)c1ccc(-c2nc(C[C@H](NC(=O)[C@@H](N)CCCNC(=N)N)C(=O)N[C@@H](CCCNC(=N)N)C(=O)NCc3ccccc3)c[nH]2)cc1
2. N=C(N)NCCC[C@H](NC(=O)[C@H](Cc1c[nH]c(-c2ccc(-c3ccccc3)cc2)n1)NC(=O)[C@@H](N)CCCNC(=N)N)C(=O)NCc1ccccc1
3. COC(=O)[C@H](CCCNC(=N)N)NC(=O)[C@H](Cc1c[nH]c(-c2ccc(C(C)(C)C)cc2)n1)NC(=O)[C@@H](N)CCCNC(=N)N
4. Cc1ccc(-c2nc(C[C@H](NC(=O)[C@@H](N)CCCNC(=N)N)C(=O)N[C@@H](CCCNC(=N)N)C(=O)NCc3ccccc3)c[nH]2)cc1

A.
["> 143", "> 100", "> 16.3", "> 28.6"]

Origin of values: ChEMBL document CHEMBL3259662
